Test system: Semliki Forest virus
test.method.notes: Effect of compound on forest virus infection in mice, Mean survival time through 21 days at 200 mg/kg dose
Assay type: functional
metric.name: Mean survival time (days)
Value expressed in days; do not type the unit.

// Mean survival time lookup, key: Nc1nc2c(c(=O)[nH]1)c(=O)[nH]n2C1O[C@H](CO)[C@@H](O)[C@H]1O (some centres undefined)
6.9

Same for Nc1nc2c(c(N)nn2C2O[C@H](CO)[C@@H](O)[C@H]2O)c(=O)[nH]1 (some centres undefined)
6.8

Same for Nc1nc2c(c(C(=O)O)nn2C2O[C@H](CO)[C@@H](O)[C@H]2O)c(=O)[nH]1 (some centres undefined)
6.3

Same for Cc1nn(C2O[C@H](CO)[C@@H](O)[C@H]2O)c2nc(N)[nH]c(=O)c12 (some centres undefined)
6.4

Same for COc1nn(C2O[C@H](CO)[C@@H](O)[C@H]2O)c2nc(N)[nH]c(=O)c12 (some centres undefined)
8.6

Same for Nc1nc2c(c(Br)nn2C2O[C@H](CO)[C@@H](O)[C@H]2O)c(=O)[nH]1 (some centres undefined)
9

Same for N=c1[nH]c(=O)c2c(-c3ccccc3)nn(C3O[C@H](CO)[C@@H](O)[C@H]3O)c2[nH]1 (some centres undefined)
7.2

----------
Please provide measured Survivors / total for the entries that follow.
Test system: Semliki Forest virus
test.method.notes: Effect of compound on forest virus infection in mice at the dose of 100 mg/kg; Tested over 12 mice
Assay type: functional
Number only, please.

// Survivors / total lookup, key: Nc1nc2c(cnn2C2O[C@H](CO)[C@@H](O)[C@H]2O)c(=O)[nH]1 (stereo not given in full)
9

Same for Nc1nc(=O)c2sc(=O)n([C@@H]3O[C@H](CO)[C@@H](O)[C@H]3O)c2[nH]1 [ISATORIBINE]
10

Same for Nc1nc2c(c(N)nn2C2O[C@H](CO)[C@@H](O)[C@H]2O)c(=O)[nH]1 (stereo not given in full)
1

Same for COc1nn(C2O[C@H](CO)[C@@H](O)[C@H]2O)c2nc(N)[nH]c(=O)c12 (stereo not given in full)
2

Same for Nc1nc2c(c(Br)nn2C2O[C@H](CO)[C@@H](O)[C@H]2O)c(=O)[nH]1 (stereo not given in full)
11

----------
Test system: Semliki Forest virus
test.method.notes: Effect of compound on forest virus infection in mice at the dose of 200 mg/kg; tested over 12 mice
Type: functional
Please provide measured Survivors / total for the entries that follow.
Number only, please.

// Survivors / total lookup, key: N=c1[nH]c(=O)c2c(-c3ccccc3)nn(C3O[C@H](CO)[C@@H](O)[C@H]3O)c2[nH]1 (some centres undefined)
0

Same for COc1nn(C2O[C@H](CO)[C@@H](O)[C@H]2O)c2nc(N)[nH]c(=O)c12 (some centres undefined)
2

Same for Nc1nc2c(c(C(=O)O)nn2C2O[C@H](CO)[C@@H](O)[C@H]2O)c(=O)[nH]1 (some centres undefined)
3

----------
Please provide measured Survivors / total for the entries that follow.
Tested on: Semliki Forest virus
test.method.notes: Effect of compound on forest virus infection in mice at the dose of 200 mg/kg; Tested over 12 mice
Assay type: functional
Number only, please.

Look up Survivors / total with Semliki Forest virus for this compound: Nc1nc(=O)c2sc(=O)n([C@@H]3O[C@H](CO)[C@@H](O)[C@H]3O)c2[nH]1
12

Same for Nc1nc2c(c(Br)nn2C2O[C@H](CO)[C@@H](O)[C@H]2O)c(=O)[nH]1 (some centres undefined)
11

Same for Nc1nc2c(cnn2C2O[C@H](CO)[C@@H](O)[C@H]2O)c(=O)[nH]1 (some centres undefined)
12

Same for Nc1nc2c(c(N)nn2C2O[C@H](CO)[C@@H](O)[C@H]2O)c(=O)[nH]1 (some centres undefined)
3

----------
Test system: Semliki Forest virus
test.method.notes: Effect of compound on forest virus infection in mice, Mean survival time through 21 days at 100 mg/kg dose
Assay type: functional
metric.name: Mean survival time (days)
Value expressed in days; do not type the unit.

// Mean survival time lookup, key: N=c1[nH]c(=O)c2c(-c3ccccc3)nn(C3O[C@H](CO)[C@@H](O)[C@H]3O)c2[nH]1 (some centres undefined)
6

Same for Nc1nc2c(c(C(=O)O)nn2C2O[C@H](CO)[C@@H](O)[C@H]2O)c(=O)[nH]1 (some centres undefined)
6

Same for Nc1nc2c(cnn2C2O[C@H](CO)[C@@H](O)[C@H]2O)c(=O)[nH]1 (some centres undefined)
9

Same for COc1nn(C2O[C@H](CO)[C@@H](O)[C@H]2O)c2nc(N)[nH]c(=O)c12 (some centres undefined)
7.8

Same for Nc1nc2c(c(=O)[nH]1)c(=O)[nH]n2C1O[C@H](CO)[C@@H](O)[C@H]1O (some centres undefined)
7

Same for Nc1nc2c(c(N)nn2C2O[C@H](CO)[C@@H](O)[C@H]2O)c(=O)[nH]1 (some centres undefined)
6.2

Same for Nc1nc(=O)c2sc(=O)n([C@@H]3O[C@H](CO)[C@@H](O)[C@H]3O)c2[nH]1
11.5

Same for Nc1nc2c(c(Br)nn2C2O[C@H](CO)[C@@H](O)[C@H]2O)c(=O)[nH]1 (some centres undefined)
9

Same for Cc1nn(C2O[C@H](CO)[C@@H](O)[C@H]2O)c2nc(N)[nH]c(=O)c12 (some centres undefined)
8
